These entries and their values trace back to paper PMC6436558.

Tested on: N1303K-CFTR (Homo sapiens, UniProt P13569, N1303K)
Test protocol: Short-circuit current in FRT cells expressing N1303K-CFTR
Assay type: cell-based
Condition details: read-out: EC50 for activation of N1303K-CFTR chloride current; short-circuit current; in the presence of forskolin and 5 μM VX-770

{"Chemical smiles": "CCCCn1cc(S(=O)(=O)Nc2ccc(CC)cc2)c2cccnc21", "EC50 [nM]": 1900}

----------
Tested on: W1282X-CFTR (Homo sapiens)
Condition details: read-out: W1282X-CFTR EC50; co-potentiator activity (with VX-770); plate reader concentration-dependence measurements
pEC50: −log10 of the molar value.
Metric: pEC50

{"Molecule": "CCCCn1cc(S(=O)(=O)Nc2ccc(CC)cc2)c2cccnc21 [ASP-11]", "Tested on": "W1282X-CFTR (Homo sapiens)", "Observed result": 6.00}

----------
Tested on: N1303K-CFTR (Homo sapiens, UniProt P13569, N1303K)
Format: cell-based
Condition details: read-out: N1303K-CFTR EC50; co-potentiator activity (with VX-770); plate reader concentration-dependence measurements
pEC50: −log10 of the molar value.
Metric: pEC50

{"Compound": "CCCCn1cc(S(=O)(=O)Nc2ccc(CC)cc2)c2cccnc21 [ASP-11]", "Metric": "pEC50", "Observed result": 5.72}

----------
Tested on: F508del-CFTR (Homo sapiens, UniProt P13569, DEL508-508)
Test protocol: Short-circuit current in FRT cells expressing F508del-CFTR
Type: cell-based
Condition details: read-out: EC50, increase of F508del-CFTR activity; in the presence of a sub-maximal concentration of VX-770
pEC50: −log10 of the molar value.
Metric: pEC50

{"Chemical smiles": "CCCCn1cc(S(=O)(=O)Nc2ccc(CC)cc2)c2cccnc21", "Observed result": 5.46}

----------
Tested on: wild-type CFTR (Homo sapiens, UniProt P13569)
Test protocol: Short-circuit current in FRT cells expressing wild-type CFTR
Format: cell-based
Condition details: read-out: EC50, activation of wild-type CFTR; submaximal forskolin 25 nM

{"Chemical smiles": "CCCCn1cc(S(=O)(=O)Nc2ccc(CC)cc2)c2cccnc21", "EC50": "~10 µM"}
